The origin of these recorded values is patent US10864178B2.

Tested on: stomach cancer stem cells (MKN-1 and SNU-484)
Assay: Proliferation inhibition, average over stomach cancer stem cells
Format: cell-based
Conditions: average of MKN-1 and SNU-484; read-out: IC50 concentration, average

{"columns": ["CHEMICAL STRING", "IC50, µM"],
 "data": [
  ["Cc1cc2c(C(C)C)c(O)c(O)c(C=O)c2c(O)c1-c1c(C)cc2c(C(C)C)c(O)c(O)c(C=O)c2c1O", 2.65]
]}
